As shown below, each of these binders has a reported kon value.
- Study target: T1, Evasin-1 (Rhipicephalus sanguineus, UniProt P0C8E7 21-114)
- T1 sequence (looked up): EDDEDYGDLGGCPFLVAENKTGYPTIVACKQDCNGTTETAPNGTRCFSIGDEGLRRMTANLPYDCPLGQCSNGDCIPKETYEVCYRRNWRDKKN
- Protocol details: SPR
Your answer is read as M⁻¹ s⁻¹, so omit the unit and give the number.

| Binder | Unit of measurement | kon |
| --- | --- | --- |
| CCL3L1 (ligand, human, UniProt P16619 24-93, looked up) APLAADTPTACCFSYTSRQIPQNFIADYFETSSQCSKPSVIFLTKRGRQVCADPSEEWVQKYVSDLELSA | M⁻¹ s⁻¹ | 1.32e+07 |
| murine MIP-1α (ligand, mouse, UniProt P10855 24-92, looked up) APYGADTPTACCFSYSRKIPRQFIVDYFETSSLCSQPGVIFLTKRNRQICADSKETWVQEYITDLELNA | M⁻¹ s⁻¹ | 1.56e+07 |
| murine MIP-1β (ligand, mouse, UniProt P14097 24-92, looked up) APMGSDPPTSCCFSYTSRQLHRSFVMDYYETSSLCSKPAVVFLTKRGRQICANPSEPWVTEYMSDLELN | M⁻¹ s⁻¹ | 3.84e+06 |
| CCL3 (ligand, human, UniProt P10147 24-92, looked up) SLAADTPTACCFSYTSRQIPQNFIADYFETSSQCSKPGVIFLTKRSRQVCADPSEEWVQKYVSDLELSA | M⁻¹ s⁻¹ | 1.38e+07 |

Continue with the binder presented below.
The recorded kon for CCL4 (ligand, human, UniProt P13236 24-92, looked up) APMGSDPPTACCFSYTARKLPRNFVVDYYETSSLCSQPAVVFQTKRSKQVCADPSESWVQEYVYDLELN is 4.29e+06

Origin of measurements: paper PMC2526197
